Recorded DC50 for the following molecules
# target of assay: androgen receptor (AR) splicing variant AR-v7 (Homo sapiens)
# Construct: The degradation activity of compounds on AR-v7 in 22RV1 cells; host or cells: 22RV1 cells
# Sequence (P10275 1-644 isoform P10275-3): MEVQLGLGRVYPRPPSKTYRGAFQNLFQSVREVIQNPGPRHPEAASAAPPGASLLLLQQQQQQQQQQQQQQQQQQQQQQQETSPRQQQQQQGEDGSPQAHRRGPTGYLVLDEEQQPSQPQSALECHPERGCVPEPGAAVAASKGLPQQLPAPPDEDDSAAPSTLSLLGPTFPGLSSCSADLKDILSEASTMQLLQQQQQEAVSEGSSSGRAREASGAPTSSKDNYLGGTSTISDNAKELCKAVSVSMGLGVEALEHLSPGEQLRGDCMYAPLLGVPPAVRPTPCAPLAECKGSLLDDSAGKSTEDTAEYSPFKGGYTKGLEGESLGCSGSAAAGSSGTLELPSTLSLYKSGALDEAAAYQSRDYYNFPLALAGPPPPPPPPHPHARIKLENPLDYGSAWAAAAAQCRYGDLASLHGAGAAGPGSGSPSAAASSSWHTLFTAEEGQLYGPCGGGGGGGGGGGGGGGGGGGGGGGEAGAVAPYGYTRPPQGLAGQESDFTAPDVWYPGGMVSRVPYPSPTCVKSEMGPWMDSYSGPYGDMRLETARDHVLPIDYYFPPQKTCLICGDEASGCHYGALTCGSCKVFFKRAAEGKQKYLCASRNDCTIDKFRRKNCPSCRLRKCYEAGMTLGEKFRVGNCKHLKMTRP
# assay remarks: Degradation activity on androgen receptor splicing variant AR-v7 in 22RV1 cells (ELISA)
# Assay type: cell-based
# run parameters: AR-v7 degradation in 22RV1 cells, 48 h, class symbols

Sample answers from the record:
molecule | DC50
CC(C)(c1ccc(Oc2nccc(N3CC4(COC4)C3)n2)cc1)c1ccc(O[C@H]2C[C@H](Nc3ccc4c(c3)C(=O)N(C3CCC(=O)NC3=O)C4=O)C2)cc1 (stereo partly shown) | < 10 nM
CC(C)(c1ccc(OCCCCCCCCOCCCCNc2ccc3c(c2)C(=O)N(C2CCC(=O)NC2=O)C3=O)cc1)c1ccc(OCc2ccnc(N3CC4(COC4)C3)n2)cc1 (stereo not shown) | 1000 to 5000 nM
CC(=O)c1nccc(COc2ccc(C(C)(C)c3ccc(OCCCCCCCCOCCCCNc4ccc5c(c4)C(=O)N(C4CCC(=O)NC4=O)C5=O)cc3)cc2)n1 (stereo not shown) | 101 to 1000 nM
CCC(CC)(c1ccc(Oc2ccc(C(C)=O)nn2)cc1)c1ccc(OC2CC(Nc3ccc4c(c3)C(=O)N(C3CCC(=O)NC3=O)C4=O)C2)cc1 (stereo not shown) | < 10 nM
Cc1nc(-c2cccc(COc3ccc(C(C)(C)c4ccc(O[C@H]5C[C@H](Nc6ccc7c(c6)C(=O)N(C6CCC(=O)NC6=O)C7=O)C5)cc4)cc3)n2)no1 (stereo partly shown) | 11 to 100 nM
CC(=O)c1nccc(COc2ccc(C(C)(C)c3ccc(N4CC5(C4)CN(c4ccc6c(c4)C(=O)N(C4CCC(=O)NC4=O)C6=O)C5)cc3)cc2)n1 (stereo not shown) | 11 to 100 nM

Entry CC(C)(c1ccc(OCc2ccnc(N3CC4(COC4)C3)n2)cc1)c1ccc(O[C@H]2C[C@@H](Nc3ccc4c(c3)CN(C3CCC(=O)NC3=O)C4=O)C2)cc1 (stereo partly shown) ; DC50 = < 10 nM

// Cc1nc(-c2ncc(Oc3ccc(C(C)(C)c4ccc(O[C@H]5C[C@H](Nc6ccc7c(c6)C(=O)N(C6CCC(=O)NC6=O)C7=O)C5)cc4)cc3)cc2C(F)(F)F)no1 (stereo partly shown) : DC50 value = 11 to 100 nM

The molecule listed as CN1CCN(c2ncc3c(n2)CN(c2ccc(C(C)(C)c4ccc(O[C@H]5C[C@@H](Nc6ccc7c(c6)C(=O)N(C6CCC(=O)NC6=O)C7=O)C5)cc4)cc2)CC3)CC1 (stereo partly shown) has a reported DC50 of 11 to 100 nM

DC50 measured on CC(C)(c1ccc(OCc2ccnc(NC#N)n2)cc1)c1ccc(O[C@H]2C[C@H](Nc3ccc4c(c3)C(=O)N(C3CCC(=O)NC3=O)C4=O)C2)cc1 (stereo partly shown) = 101 to 1000 nM

Reported DC50 for CC(c1ccc(C(C)(C)c2ccc(OCc3ccnc(N4CC5(COC5)C4)n3)cc2)cc1)N1CC(Nc2ccc3c(c2)C(=O)N(C2CCC(=O)NC2=O)C3=O)C1 (stereo not shown) was 1000 to 5000 nM

Reported DC50 for Cc1nc(-c2ccc(Oc3ccc(C(C)(C)c4ccc(O[C@H]5C[C@H](Nc6ccc7c(c6)C(=O)N(C6CCC(=O)NC6=O)C7=O)C5)cc4)cc3)cn2)no1 (stereo partly shown) [Example 209] was < 10 nM

The molecule listed as Cc1nnc(-c2nnc(Oc3ccc(C(C)(C)c4ccc(O[C@H]5C[C@H](Nc6ccc7c(c6)C(=O)N(C6CCC(=O)NC6=O)C7=O)C5)cc4)cc3)s2)o1 (stereo partly shown) has a reported DC50 of 11 to 100 nM

Reported DC50 for CN[C@H]1CCCN(c2nccc(COc3ccc(C(C)(C)c4ccc(O[C@H]5C[C@@H](Nc6ccc7c(c6)C(=O)N(C6CCC(=O)NC6=O)C7=O)C5)cc4)cc3)n2)C1 (stereo partly shown) was 11 to 100 nM

Measured DC50 of CC(=O)Nc1nccc(COc2ccc(C(C)(C)c3ccc(OCCCCCCCCOCCCCNc4ccc5c(c4)C(=O)N(C4CCC(=O)NC4=O)C5=O)cc3)cc2)n1 (stereo not shown) : 1000 to 5000 nM

Per the record, CC(C)(c1ccc(OCc2ccnc(NC3CCN(CCCCO)CC3)n2)cc1)c1ccc(O[C@H]2C[C@H](Nc3ccc4c(c3)C(=O)N(C3CCC(=O)NC3=O)C4=O)C2)cc1 (stereo partly shown) has DC50 of < 10 nM

Record summary for CC(C)(c1ccc(OCc2ccnc(N3CC(N4CC(F)C4)C3)n2)cc1)c1ccc(O[C@H]2C[C@H](Nc3ccc4c(c3)C(=O)N(C3CCC(=O)NC3=O)C4=O)C2)cc1 (stereo partly shown) : reported DC50 = < 10 nM

For this molecule ( CC(C)(c1ccc(OCCCNc2ccc3c(c2)C(=O)N(C2CCC(=O)NC2=O)C3=O)cc1)c1ccc(OCc2nc3ncccc3o2)cc1 (stereo not shown) ), measured DC50 is 11 to 100 nM

DC50 recorded for this molecule, Cc1nc(-c2ncc(Oc3ccc(C4(c5ccc(O[C@H]6C[C@H](Nc7ccc8c(c7)C(=O)N(C7CCC(=O)NC7=O)C8=O)C6)cc5)CCOCC4)cc3)cn2)no1 (stereo partly shown) , is < 10 nM
